What Activity was measured for each of the following?
target: Thymidine kinase (Ureaplasma parvum serovar 3 (strain ATCC 700970)); experiment: Ratio of Vmax to Km for Ureaplasma parvum thymidine kinase relative to dThd
Give the value in % but do not write % after it.

Notebook: Cc1cn([C@H]2C[C@H](n3cc(-c4ccccc4)nn3)[C@@H](CO)O2)c(=O)[nH]c1=O , Activity read as 0.7

Notebook: Cc1cn([C@H]2C[C@H](n3cc(-c4ccccn4)nn3)[C@@H](CO)O2)c(=O)[nH]c1=O , Activity read as 1.1

Notebook: Cc1cn([C@H]2C[C@H](n3cc(CCc4ccccc4)nn3)[C@@H](CO)O2)c(=O)[nH]c1=O , Activity read as 0.8

Notebook: Cc1cn([C@H]2C[C@H](n3cc(C(C)(C)C)nn3)[C@@H](CO)O2)c(=O)[nH]c1=O , Activity read as 0.15

###

What Activity was measured for each of the following?
Target: Thymidine kinase, cytosolic (Homo sapiens)
Sequence (whole entry): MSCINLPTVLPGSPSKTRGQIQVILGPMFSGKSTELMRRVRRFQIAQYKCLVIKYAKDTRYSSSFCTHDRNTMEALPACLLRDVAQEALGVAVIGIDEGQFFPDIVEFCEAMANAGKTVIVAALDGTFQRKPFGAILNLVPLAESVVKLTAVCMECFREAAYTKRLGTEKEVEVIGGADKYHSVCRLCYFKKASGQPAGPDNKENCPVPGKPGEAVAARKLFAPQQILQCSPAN
Assay: Activity of human TK1 relative to ATP
Parameters: concentration or dose not given beside the values
Give the value in % but do not write % after it.

Notebook: Cc1cn([C@H]2C[C@H](n3cc(CCc4ccccc4)nn3)[C@@H](CO)O2)c(=O)[nH]c1=O , Activity read as 2.4

Notebook: CC(=O)OCc1cn([C@H]2C[C@H](n3cc(C)c(=O)[nH]c3=O)O[C@@H]2CO)nn1 , Activity read as 2.4

Notebook: Cc1cn([C@H]2C[C@H](N=[N+]=[N-])[C@@H](CO)O2)c(=O)[nH]c1=O , Activity read as 47.3

Notebook: Cc1cn([C@H]2C[C@H](n3cc(CCO)nn3)[C@@H](CO)O2)c(=O)[nH]c1=O , Activity read as 2.2

Notebook: CCCc1cn([C@H]2C[C@H](n3cc(C)c(=O)[nH]c3=O)O[C@@H]2CO)nn1 , Activity read as 2.7

Notebook: Cc1cn([C@H]2C[C@H](n3cc(-c4ccc(F)cc4)nn3)[C@@H](CO)O2)c(=O)[nH]c1=O , Activity read as 2.6

Notebook: Cc1cn([C@H]2C[C@H](n3cc(-c4ccccc4)nn3)[C@@H](CO)O2)c(=O)[nH]c1=O , Activity read as 2.1

###

target: Thymidine kinase, cytosolic (Homo sapiens) (UniProt P04183); test: Ratio of Vmax to Km for human TK1 relative to […]
What Activity was measured for each of the following?
Please answer in the form of a number followed by its unit of measurement.

Notebook: Cc1cn([C@H]2C[C@H](n3cc(CCc4ccccc4)nn3)[C@@H](CO)O2)c(=O)[nH]c1=O , Activity read as 0.08%

Notebook: Cc1cn([C@H]2C[C@H](n3cc(-c4ccccn4)nn3)[C@@H](CO)O2)c(=O)[nH]c1=O , Activity read as 0.5%

Notebook: CCCCCc1cn([C@H]2C[C@H](n3cc(C)c(=O)[nH]c3=O)O[C@@H]2CO)nn1 , Activity read as 0.3%

Notebook: CC(=O)OCc1cn([C@H]2C[C@H](n3cc(C)c(=O)[nH]c3=O)O[C@@H]2CO)nn1 , Activity read as 0.1%

Notebook: Cc1cn([C@H]2C[C@H](N=[N+]=[N-])[C@@H](CO)O2)c(=O)[nH]c1=O , Activity read as 50%

Notebook: Cc1cn([C@H]2C[C@H](n3cc(-c4ccc(F)cc4)nn3)[C@@H](CO)O2)c(=O)[nH]c1=O , Activity read as 1.1%

Notebook: CCCc1cn([C@H]2C[C@H](n3cc(C)c(=O)[nH]c3=O)O[C@@H]2CO)nn1 , Activity read as 0.1%

Notebook: Cc1cn([C@H]2C[C@H](n3cc(Cc4ccccc4)nn3)[C@@H](CO)O2)c(=O)[nH]c1=O , Activity read as 0.1%

Notebook: Cc1cn([C@H]2C[C@H](n3cc(C(C)(C)C)nn3)[C@@H](CO)O2)c(=O)[nH]c1=O , Activity read as 0.07%

Notebook: Cc1cn([C@H]2C[C@H](n3cc(-c4ccccc4)nn3)[C@@H](CO)O2)c(=O)[nH]c1=O , Activity read as 0.2%
